- TESTED_ON: Flag/GST-tagged recombinant human B-Raf (Homo sapiens, UniProt P15056)
- Construct: Flag; GST; made in house; host or cells: Sf9 insect cells (B-Raf); E. coli (MEK1-GST)
- Sequence (P15056 whole entry): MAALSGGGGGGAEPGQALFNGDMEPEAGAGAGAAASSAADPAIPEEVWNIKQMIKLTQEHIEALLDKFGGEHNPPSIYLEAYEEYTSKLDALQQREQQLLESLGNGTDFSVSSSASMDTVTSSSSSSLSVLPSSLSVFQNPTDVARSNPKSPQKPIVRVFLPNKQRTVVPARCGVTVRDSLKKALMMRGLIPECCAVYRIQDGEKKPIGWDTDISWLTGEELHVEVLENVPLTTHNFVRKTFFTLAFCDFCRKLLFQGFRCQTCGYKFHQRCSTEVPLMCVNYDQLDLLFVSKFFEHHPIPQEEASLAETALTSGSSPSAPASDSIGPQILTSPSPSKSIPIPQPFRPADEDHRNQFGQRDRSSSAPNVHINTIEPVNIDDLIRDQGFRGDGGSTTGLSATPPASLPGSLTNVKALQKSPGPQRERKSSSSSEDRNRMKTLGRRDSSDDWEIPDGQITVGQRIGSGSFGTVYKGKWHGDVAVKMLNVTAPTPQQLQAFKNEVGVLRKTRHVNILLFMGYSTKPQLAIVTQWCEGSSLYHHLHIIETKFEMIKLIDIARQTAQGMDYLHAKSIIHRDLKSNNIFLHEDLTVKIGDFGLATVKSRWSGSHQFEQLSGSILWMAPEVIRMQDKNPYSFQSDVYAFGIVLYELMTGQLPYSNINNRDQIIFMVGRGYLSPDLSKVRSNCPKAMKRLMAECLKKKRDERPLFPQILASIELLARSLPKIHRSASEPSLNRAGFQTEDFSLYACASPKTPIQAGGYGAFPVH
- ASSAY_EXPLANATION: B-Raf kinase assay (phosphorylation of GST-MEK1, phospho-MEK1 antibody/Europium detection)
- Type: biochemical
- ASSAY_CONTEXT: B-Raf IC50 Data for compounds of Formula A; read-out: Mean IC50
Structures can show the parent of a compound that is named as a salt.
Threshold 0.8 nM. IC50 below it: Yes. IC50 at it or above: No.

1. CCN1C2CCC1CC(c1ccnc3c(-c4ccc(NC(=O)OC)cc4)c(-c4ccncc4)nn13)C2 (stereo not drawn) [Example 67]
No
2. FC(F)(F)c1cc(N2C[C@@H]3C[C@H]2CN3)ccc1-c1ccnc2c(-c3cccc4[nH]ncc34)c(-c3ccncc3)nn12 [Example 186]
No
3. CCOC(=O)N1C2CCC1CC(c1ccnc3c(-c4ccc(F)c5[nH]ncc45)c(-c4ccncc4)nn13)C2 (stereo not drawn) [Example 81, trifluoroacetate salt]
Yes
4. Brc1cc(N2C[C@@H]3C[C@H]2CN3)ccc1-c1ccnc2c(-c3cccc4[nH]ncc34)c(-c3ccncc3)nn12 [Example 187]
Yes
5. c1cc(-c2c(-c3ccncc3)nn3c2nccc3[C@H]2CC[C@@H](N3C4CCC3COC4)CC2)c2cn[nH]c2c1 (relative stereo) [Example 150]
No
6. CCN1C2CCC1CC(c1ccnc3c(-c4ccc5cc[nH]c5c4)c(-c4ccncc4)nn13)C2 (stereo not drawn) [Example 87]
No
7. c1cc(-c2c(-c3ccncc3)nn3c(-c4ccc(CN5C[C@@H]6C[C@H]5CN6)s4)ccnc23)c2cn[nH]c2c1 [Example 198]
No
8. Fc1cc(CN2C3COCC2COC3)ccc1-c1ccnc2c(-c3cccc4[nH]ncc34)c(-c3ccncc3)nn12 [Example 210]
Yes
9. CN1C[C@@H]2C[C@H]1CN2c1ccc(-c2ccnc3c(-c4cccc(O)c4)c(-c4ccncc4)nn23)c(F)c1 [Example 134]
Yes
10. Cc1cc(N2C[C@@H]3C[C@H]2CN3C)ccc1-c1ccnc2c(-c3cccc(O)c3)c(-c3ccncc3)nn12 [Example 58]
Yes
11. c1cc(-c2c(-c3ccncc3)nn3c(-c4coc(CN5C[C@@H]6C[C@H]5CO6)c4)ccnc23)c2cn[nH]c2c1 [Example 193]
No
12. c1cc(-c2c(-c3ccncc3)nn3c2nccc3[C@H]2CC[C@H](N3C[C@@H]4C[C@H]3CO4)CC2)c2cn[nH]c2c1 [Example 155]
No
13. CCN1C2CCC1CC(c1ccnc3c(-c4ccc(NC(N)=O)cc4)c(-c4ccncc4)nn13)C2 (stereo not drawn) [Example 23]
No
14. N#CCN1C2CCC1CC(c1ccnc3c(-c4ccc(F)c5[nH]ncc45)c(-c4ccncc4)nn13)C2 (stereo not drawn) [Example 138]
Yes
15. CC(C)(C)OC(=O)N1C[C@@H]2C[C@H]1CN2c1cc(F)c(-c2ccnc3c(-c4cccc5[nH]ncc45)c(-c4ccncc4)nn23)c(F)c1 [Example 99]
No
16. Cc1cc(N2C[C@@H]3C[C@H]2CN3C)ccc1-c1ccnc2c(-c3ccc(F)c(O)c3)c(-c3ccncc3)nn12 [Example 56]
Yes
17. CCOC(=O)N1C2CCC1CC(c1ccnc3c(-c4cccc(F)c4F)c(-c4ccncc4)nn13)C2 (stereo not drawn) [Example 65]
No
18. Fc1cc(N2C[C@@H]3C[C@H]2CN3)c(F)cc1-c1ccnc2c(-c3cccc4[nH]ncc34)c(-c3ccncc3)nn12 [Example 163]
Yes
19. CN(C)c1cc(N2C[C@@H]3C[C@H]2CN3C)ccc1-c1ccnc2c(-c3cccc4[nH]ncc34)c(-c3ccncc3)nn12 [Example 148]
No
20. CC(C)(C)OC(=O)N1CCC[C@H]1C(=O)N1C2CCC1CC(c1ccnc3c(-c4cccc5[nH]ncc45)c(-c4ccncc4)nn13)C2 (stereo partly drawn) [Example 128]
No
21. CN1C[C@@H]2C[C@H]1CN2c1ccc(-c2ccnc3c(-c4ccc(F)c5[nH]ncc45)c(-c4ccncc4)nn23)cc1 [Example 104, hydrochloride]
Yes
22. CN1C[C@@H]2C[C@H]1CN2c1c(F)c(F)c(-c2ccnc3c(-c4cccc5[nH]ncc45)c(-c4ccncc4)nn23)c(F)c1F [Example 174]
Yes
23. Fc1ccc(-c2c(-c3ccncc3)nn3c2nccc3[C@H]2CC[C@H](N3C4CCC3COC4)CC2)c2cn[nH]c12 (relative stereo) [Example 182]
No
24. Fc1cc(CN2C[C@@H]3C[C@H]2CO3)ccc1-c1ccnc2c(-c3cccc4[nH]ncc34)c(-c3ccncc3)nn12 [Example 206]
No
25. CCN1C2CCC1CC(c1ccnc3c(-c4ccc(Cl)c(O)c4)c(-c4ccncc4)nn13)C2 (stereo not drawn) [Example 18]
Yes
